# procedure.details: Biodistribution in ICR mice after an iv injection
# Assay type: in vivo
# condition.notes: Spleen, 2 min after iv injection
measure: % dose/g (% dose/g)

- molecule: "CNc1ccc(-c2ccc3nc(OCCOCCOCC[18F])ccc3c2)cc1 [[^18F]34a]"
  % dose/g (% dose/g): 4.11
- molecule: "CNc1ccc(-c2ccc3cc(OCCOCCOCCF)ccc3c2)cc1"
  % dose/g (% dose/g): 5.11
- molecule: "CNc1ccc2cc(-c3ccc(OCCOCCOCC[18F])cc3)ccc2c1 [[^18F]19a]"
  % dose/g (% dose/g): 6.94
- molecule: "CN(C)c1ccc(-c2ccc3nc(OCCOCCOCC[18F])ccc3c2)cc1 [[^18F]32a]"
  % dose/g (% dose/g): 4.95
